Provide the recorded log10 kcat/Km (Hz/M) for the entries that follow.
experimental-system: T1, Abz-LPETGK(Dnp)-CONH2
T1 chain: LPETGK
Non-standard residues stand in square brackets, D forms with d. No end group written: not given here. *: point of attachment. Dnp = O=[N+]([O-])c1ccc(*)c([N+](=O)[O-])c1; 2Abz = Nc1ccccc1C(=O)O
Heads up: the numbers are on a log10 scale; they represent kcat/Km (Hz/M) in Hz/M.

Below, 4 proteins whose answers are already recorded.
wild-type S. aureus sortase A (protein) QAKPQIPKDKSKVAGYIEIPDADIKEPVYPGPATPEQLNRGVSFAEENESLDDQNISIAGHTFIDRPNYQFTNLKAAKKGSMVYFKVGNETRKYKMTSIRDVKPTDVEVLDEQKGKDKQLTLITCDDYNEKTGVWEKRKIFVATEVK	2.37
4S.6B (protein) QAKPQIPKDKSKVAGYIEIPDADIKEPVYPGPATREQLDRGVSFVEENESLDDQNISISGHTAIDRPNYQFTNLPAAKKGSMVYFKVGNETRKYKMTSIRNVKPTAVEVLDEQKGKDKQLTLVTCDDYNPETGVWETRKIFVATEVK	3.66
eSrtA(2A-4) (protein) QAKPQIPKDKSKVAGYIEIPDADIKEPVYPGPATREQLNRGVSFHEENESLDDQNISIAGHTFIDRPNYQFTNLKAAKKGSMVYFKVGNETRKYKMTSIRNVRPTAVEILDEQKGKDKQLTLVTCDDYNEETGVWETRKIFVATEVK	0.90
eSrtA(4S-5) (protein) QAKPQIPKDKSKVAGYIEIPDADIKEPVYPGPATREQLDRGVSFVEENESLDDQNISITGHTAIDRPNYQFTNLRAAKKGSMVYFKVGNETRKYKMTSIRNVKPTAVEVLDEQKGKDKQLTLVTCDDYNEETGVWETRKIFVATEVK	2.71

The record that follows has no log10 kcat/Km (Hz/M) shown yet.
Entry under review: evolved sortase A (eSrtA) (enzyme) QAKPQIPKDKSKVAGYIEIPDADIKEPVYPGPATREQLNRGVSFAEENESLDDQNISIAGHTFIDRPNYQFTNLKAAKKGSMVYFKVGNETRKYKMTSIRNVKPTAVEVLDEQKGKDKQLTLITCDDYNEETGVWETRKIFVATEVK . Reported log10 kcat/Km (Hz/M)? 4.43
